- Test system: SNB-75 CNS
- assay-remarks: NCI-60 one-dose screen, 48 h
- protocol-conditions: 10 µM unless noted
The panel holds about 83,000 compounds, 20% with a hit somewhere; the sample as a whole holds those more often. The source made the active and inactive calls. How the source made its calls: active means growth percent below 10; inactive means the rest.
The categories you may choose from are true (1) = active, false (0) = inactive

*Q* Can you look up the reported call for C=CC[Se]C(=O)c1ccccc1OC(C)=O for me?
*A* true (1)

*Q* Can you look up the reported call for CC(C)(C)C(=O)OCOP(=O)(NCc1ccccc1)C1CCCN(O)C1=O (centres undefined) for me?
*A* false (0)

*Q* Can you look up the reported call for CN(C)CCCOc1ccc2c(c1)c(C(=O)C(=O)NCCO)cn2Cc1ccccc1 for me?
*A* false (0)

*Q* Can you look up the reported call for COc1ccc(C(O)(C(=O)O)c2ccc(OC)cc2)cc1 for me?
*A* false (0)

*Q* Can you look up the reported call for C[CH2][Sn]([Cl])([Cl])[CH2]C.Oc1ccccc1C=NCCN=Cc1ccccc1O for me?
*A* false (0)

*Q* Can you look up the reported call for CC12CCC(O)CC1=CCC1C2CCC2(C)C(O)CCC12 (centres undefined) for me?
*A* false (0)

*Q* Can you look up the reported call for CC12CC=CCC1CCC1C2CCC2(C)C(c3ccc(=O)oc3)CCC12O (centres undefined) for me?
*A* true (1)

*Q* Can you look up the reported call for Cc1cnc(/C=C/C(=O)O)cc1-c1cc2c(cc1C)C(C)(C)CCC2(C)C for me?
*A* false (0)

*Q* Can you look up the reported call for COC(=O)[C@@H](C)C[C@H](Cc1ccc2ccccc2c1)NC(=O)c1csc([C@@H](C[C@H](C(C)C)N(C)C(=O)[C@@H](NC(=O)[C@H]2CCCCN2C)C(C)C)OC(C)=O)n1 for me?
*A* false (0)

*Q* Can you look up the reported call for O=[N+]([O-])c1cnc[nH]1 for me?
*A* false (0)
